# target.or.test.system: CDK9/cyclin K (Homo sapiens)
# Construct: purified CDK9/cyclin K complex; with Cyclin-K
# Sequence (P50750 whole entry): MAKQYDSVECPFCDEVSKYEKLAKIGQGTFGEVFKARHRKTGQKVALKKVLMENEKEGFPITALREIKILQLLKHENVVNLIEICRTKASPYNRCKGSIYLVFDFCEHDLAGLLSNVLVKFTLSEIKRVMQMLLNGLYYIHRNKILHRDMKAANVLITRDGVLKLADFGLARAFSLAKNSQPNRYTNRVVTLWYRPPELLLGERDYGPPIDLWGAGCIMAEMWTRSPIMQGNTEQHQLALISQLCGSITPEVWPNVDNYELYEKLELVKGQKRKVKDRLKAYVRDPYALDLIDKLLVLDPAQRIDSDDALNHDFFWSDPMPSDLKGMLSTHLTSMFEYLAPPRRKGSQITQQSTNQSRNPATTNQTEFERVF
# Sequence (O75909 whole entry partner): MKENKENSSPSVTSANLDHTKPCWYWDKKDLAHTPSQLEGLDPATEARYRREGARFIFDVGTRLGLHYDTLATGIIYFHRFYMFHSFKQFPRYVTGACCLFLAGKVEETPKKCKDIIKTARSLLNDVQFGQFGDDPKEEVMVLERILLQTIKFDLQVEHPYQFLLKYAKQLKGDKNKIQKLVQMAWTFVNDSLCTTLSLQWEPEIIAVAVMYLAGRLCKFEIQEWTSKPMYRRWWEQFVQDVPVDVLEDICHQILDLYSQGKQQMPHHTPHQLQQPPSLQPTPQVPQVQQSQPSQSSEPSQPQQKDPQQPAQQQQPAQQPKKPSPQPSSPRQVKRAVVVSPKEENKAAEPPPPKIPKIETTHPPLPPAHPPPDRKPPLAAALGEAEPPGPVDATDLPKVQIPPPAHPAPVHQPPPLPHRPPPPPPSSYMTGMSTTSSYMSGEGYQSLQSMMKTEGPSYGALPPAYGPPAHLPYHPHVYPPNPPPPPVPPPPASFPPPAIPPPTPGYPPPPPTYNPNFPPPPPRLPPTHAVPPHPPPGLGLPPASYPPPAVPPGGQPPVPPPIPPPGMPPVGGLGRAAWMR
# experiment.notes: […]-ATP radiometric filter-binding kinase assay
# Type: biochemical
# test.context: read-out: Compound 3
readout.type: IC50 (µM)
The reply should be a number in µM, with the unit left off.

What value of measured IC50 is listed for CC(C(=O)Nc1cn(C(C)C)cn1)c1ccccc1 (racemic) ?
4.3

====

# target.or.test.system: CDK9/cyclin K (Homo sapiens)
# Construct: purified CDK9/cyclin K complex; with Cyclin-K
# experiment.notes: […]-ATP radiometric filter-binding kinase assay
# Type: biochemical
# test.context: read-out: Compound 4
readout.type: IC50 (µM)
The reply should be a number in µM, with the unit left off.

What value of measured IC50 is listed for CC(C)n1cnc(NC(=O)Cc2ccccn2)c1 [compound 4, Compound 4] ?
0.88
